We begin with a simple list: items and their reported %Inh.
- Test system: PIK3C2G
- reported_conditions: concentration: 1 μM,replicates: in singlicate; n = 1;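 further: KINOMEscan kinase panel screen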
measurement_name: %Inh

[[record]]
structure_smiles = "C[C@@H]1CNc2c(sc3ccc4nc(-c5ccncc5)ccc4c23)C(=O)N1"
measurement_name = "%Inh"
result = "2%"

[[record]]
structure_smiles = "O=C(Nc1cccc(Oc2ccc3nccn3n2)c1)Nc1cccc(C(F)(F)F)c1"
measurement_name = "%Inh"
result = "0%"

[[record]]
structure_smiles = "C[C@@H]1CNc2c(sc3ccc4nc(-c5ccc(O)cc5)ccc4c23)C(=O)N1"
measurement_name = "%Inh"
result = "28%"

[[record]]
structure_smiles = "Cn1ccc2ncnc(Oc3ccc(NC(=O)Nc4cncc(C(F)(F)F)c4)c(Cl)c3)c21"
measurement_name = "%Inh"
result = "0%"

[[record]]
structure_smiles = "CC(=O)Nc1ccc(-c2cc3ncnc(SCC(=O)O)c3s2)cc1"
measurement_name = "%Inh"
result = "0%"


---

We begin with a simple list: items and their reported %Inh.
- Tested on: DCAMKL2
- Construct: gene DCLK2
- reported_conditions: concentration: 1 μM,replicates: in singlicate; n = 1
measurement_name: %Inh (%)

[[record]]
compound = "c1ccc(Oc2ccc(Nc3ccnc4ccc(-c5ccccn5)cc34)cc2)cc1"
measurement_unit = "%"
quantitative_result = 0

[[record]]
compound = "NC(=O)c1ccc(-c2cc3ncnc(SCC(=O)O)c3s2)cc1"
measurement_unit = "%"
quantitative_result = 9

[[record]]
compound = "O=C(Nc1ccccc1)c1cccc(Oc2ccc3nccn3n2)c1"
measurement_unit = "%"
quantitative_result = 40

[[record]]
compound = "Nc1nccc(-c2ccc3c(N)n[nH]c3c2)n1"
measurement_unit = "%"
quantitative_result = 0

[[record]]
compound = "NC(=O)Nc1sc(-c2ccc(F)cc2)cc1C(N)=O"
measurement_unit = "%"
quantitative_result = 0

[[record]]
compound = "COC(=O)Nc1nc2cc(Oc3ccc(NC(=O)Nc4cc(C(F)(F)F)ccc4Cl)cc3)ccc2[nH]1.Cl"
measurement_unit = "%"
quantitative_result = 11

[[record]]
compound = "COc1ccc(Nc2nccc(N3CCC(NC(=O)c4cccc(C#N)c4)C3)n2)cc1 (stereo not drawn)"
measurement_unit = "%"
quantitative_result = 0

[[record]]
compound = "C[C@@H]1CNc2c(sc3ccc4nc(-c5ccc(O)cc5)ccc4c23)C(=O)N1"
measurement_unit = "%"
quantitative_result = 0

[[record]]
compound = "Cc1ccc(C(=O)Nc2ccc(Oc3ccc4nc(NC(=O)C5CC5)cn4c3)c(F)c2)c(=O)n1-c1ccccc1"
measurement_unit = "%"
quantitative_result = 0


---

- System: CDK2
- reported_conditions: concentration: 1 μM,replicates: in singlicate; n = 1
We begin with a simple list: items and their reported %Inh.
measurement_name: %Inh (%)

[[record]]
molecule = "CCN1CCN(CCCC(=O)Nc2n[nH]c3nc(-c4ccc(O)cc4)c(Br)cc23)CC1 [SB-731579]"
measurement_name = "%Inh"
quantitative_result = 1

[[record]]
molecule = "C[C@@H](Oc1cc(-n2cnc3cc(-c4cnn(C)c4)ccc32)sc1C(N)=O)c1ccccc1Cl [GSK580432]"
measurement_name = "%Inh"
quantitative_result = 26

[[record]]
molecule = "COc1cc2nccc(Nc3ccc(Oc4ccccc4)cc3)c2cc1OC.Cl [GI261656]"
measurement_name = "%Inh"
quantitative_result = 0

[[record]]
molecule = "CCn1c(-c2nonc2N)nc2cncc(CNC3CCNCC3)c21.Cl [SB-747651]"
measurement_name = "%Inh"
quantitative_result = 0

[[record]]
molecule = "Cc1n[nH]c2cc(Nc3ccnc(Nc4cccc(CN5CCOCC5)c4)n3)ccc12 [GW682569]"
measurement_name = "%Inh"
quantitative_result = 0

[[record]]
molecule = "COC(=O)c1cccc(NC(=O)NC2CCN(c3ccnc(NCc4ccc(F)cc4)n3)CC2)c1 [GSK1379860]"
measurement_name = "%Inh"
quantitative_result = 0

